system: c-Myc; test: c-Myc immunofluorescence assay; assay type: cell-based, human; conditions: A549 cells, 24 hours treatment, anti-c-Myc immunofluorescence
Where a name gives a salt, the structure may show the parent alone.

- molecule: "O=C(NC1CCCOC1)c1ccc2c(c1)sc1nc(-c3ccc(C4CCCN4)cc3F)cn12 (stereo not shown) [Compound 525]"
  Myc Efficacy (−LogEC50): "+++ (+++ ≥6)"
- molecule: "CNCCCCNC(=O)c1ccc2c(c1)sc1nc(-c3ccc(C(=O)NC)cc3)cn12 [compound 229]"
  Myc Efficacy (−LogEC50): "+ (+ >3 and <5)"
- molecule: "Cc1cccc(-c2cn3c(n2)sc2cc(C(=O)NCCCN4CCC(F)(F)CC4)ccc23)c1 [compound 133]"
  Myc Efficacy (−LogEC50): "++ (++ ≥5 and <6)"
- molecule: "CNC(=O)c1ccc(-c2nc3sc4cc(C(=O)NCCCN5CCCCC5)ccc4n3n2)cc1 [compound 319]"
  Myc Efficacy (−LogEC50): "++ (++ ≥5 and <6)"
- molecule: "CNC(=O)c1ccc(-c2cn3c(n2)sc2cc(C(=O)NCCCN4CCNCC4)ccc23)cc1 [compound 175]"
  Myc Efficacy (−LogEC50): "− (− ≤3)"
- molecule: "CNC(=O)c1ccc(-c2cn3c(n2)sc2cc(C(=O)N[C@@H](C)CN)ccc23)cc1 [compound 220]"
  Myc Efficacy (−LogEC50): "+ (+ >3 and <5)"
- molecule: "O=C(NCCCN1CCCCC1)c1ccc2c(c1)sc1nc(-c3ccncc3)cn12 [compound 306]"
  Myc Efficacy (−LogEC50): "++ (++ ≥5 and <6)"
- molecule: "CN1CCC(NC(=O)c2ccc3c(c2)sc2nc(-c4ccc([C@@H]5CCCN5)cc4F)cn23)CC1 [Compound 503S]"
  Myc Efficacy (−LogEC50): "+++ (+++ ≥6)"
- molecule: "CCN(CC)CCCNC(=O)c1ccc2c(c1)sc1nc(-c3ccc(C(=O)NC)cc3)cn12 [compound 125]"
  Myc Efficacy (−LogEC50): "++ (++ ≥5 and <6)"
- molecule: "CO[C@H]1CN[C@@H](c2ccc(-c3cn4c(n3)sc3cc(C(=O)NC5CCN(C)CC5)ccc34)c(F)c2)C1 (relative stereo) [Compound 532]"
  Myc Efficacy (−LogEC50): "+++ (+++ ≥6)"
- molecule: "O=C1CNC(c2ccc(-c3cn4c(n3)sc3cc(C(=O)NCCCN5CCC(F)CC5)ccc34)c(F)c2)C1 (stereo not shown) [Compound 507]"
  Myc Efficacy (−LogEC50): "+++ (+++ ≥6)"
- molecule: "NC(=O)c1cc2sc3nc(-c4ccc(C5CCCN5)cc4F)cn3c2cn1 (stereo not shown) [Compound 514]"
  Myc Efficacy (−LogEC50): "+++ (+++ ≥6)"
- molecule: "CCN(CC)CCCNC(=O)c1ccc2c(c1)sc1nc(-c3ccc([C@H](NC)C(F)(F)F)cc3)cn12 [compound 294]"
  Myc Efficacy (−LogEC50): "++ (++ ≥5 and <6)"
- molecule: "NCc1ccc(-c2cn3c(n2)sc2cc(C(=O)NCCCN4CCCCC4)ccc23)cc1 [compound 290]"
  Myc Efficacy (−LogEC50): "+++ (+++ ≥6)"
- molecule: "O=C(NCCCN1CCC(F)CC1)c1ccc2c(c1)sc1nc(-c3c(F)cc(C4CCCN4)cc3C3CC3)cn12 (stereo not shown) [compound 475]"
  Myc Efficacy (−LogEC50): "++ (++ ≥5 and <6)"
- molecule: "O=C1CC[C@@H](c2ccc(-c3cn4c(n3)sc3cc(C(=O)NCCCN5CCC(F)CC5)ccc34)c(F)c2)N1 [Compound 432S]"
  Myc Efficacy (−LogEC50): "+++ (+++ ≥6)"
- molecule: "O=C(NCCCN1CCC(F)CC1)c1ccc2c(c1)sc1nc(-c3ccc(C4(O)CCNC4)cc3F)cn12 (stereo not shown) [Compound 516]"
  Myc Efficacy (−LogEC50): "+++ (+++ ≥6)"
- molecule: "Cc1ccc(-c2cn3c(n2)sc2cc(C(=O)NCC4CNC4)ccc23)cc1 [compound 117]"
  Myc Efficacy (−LogEC50): "+ (+ >3 and <5)"
- molecule: "CNC(=O)c1ccc(-c2cn3c(n2)sc2cc(C(=O)NCC4CC(=O)N(C)C4)ccc23)cc1 (stereo not shown) [compound 252]"
  Myc Efficacy (−LogEC50): "+ (+ >3 and <5)"
- molecule: "Cc1cccc(-c2cn3c(n2)sc2cc(C(=O)NCCCN4CC5CC4CN5C)ccc23)c1 (stereo not shown) [compound 248]"
  Myc Efficacy (−LogEC50): "+ (+ >3 and <5)"
- molecule: "CNC(=O)c1ccc(-c2cn3c(n2)sc2cc(C(=O)NCc4nncn4C4CC4)ccc23)cc1 [compound 223]"
  Myc Efficacy (−LogEC50): "− (− ≤3)"
- molecule: "NC1(c2ccc(-c3cn4c(n3)sc3cc(C(=O)NCCCN5CCC(F)CC5)ccc34)c(F)c2)CC1 [Compound 474]"
  Myc Efficacy (−LogEC50): "+++ (+++ ≥6)"
- molecule: "Cc1cc(-c2cn3c(n2)sc2cc(C(=O)NCCCN4CCC(F)CC4)ccc23)ccn1 [compound 495]"
  Myc Efficacy (−LogEC50): "+++ (+++ ≥6)"
- molecule: "O=C(NCCCN1CCC(F)CC1)c1ccc2c(c1)sc1nc(-c3ccc([C@H]4CCNC4)cc3F)cn12 [Compound 434R]"
  Myc Efficacy (−LogEC50): "+++ (+++ ≥6)"
- molecule: "CCNC(=O)c1ccc2c(c1)sc1nc(-c3ccc(C)cc3)cn12 [compound 109]"
  Myc Efficacy (−LogEC50): "++ (++ ≥5 and <6)"
- molecule: "O=C1CCCC(c2ccc(-c3cn4c(n3)sc3cc(C(=O)NCCCN5CCC(F)CC5)ccc34)c(F)c2)N1 (stereo not shown) [compound 486]"
  Myc Efficacy (−LogEC50): "++ (++ ≥5 and <6)"
- molecule: "NCc1c(F)cc(-c2cn3c(n2)sc2cc(C(=O)NCCCN4CCCCC4)ccc23)cc1F [compound 383]"
  Myc Efficacy (−LogEC50): "++ (++ ≥5 and <6)"
- molecule: "O=C(NCCCN1CCC(F)CC1)c1ccc2c(c1)sc1nc(-c3ccc(C4CCNC4)cc3F)cn12 (stereo not shown) [Compound 479]"
  Myc Efficacy (−LogEC50): "+++ (+++ ≥6)"
- molecule: "Cc1cccc(-c2cn3c(n2)sc2cc(C(=O)N[C@H]4C[C@H](N5CCCCC5)C4)ccc23)c1 [compound 151]"
  Myc Efficacy (−LogEC50): "+ (+ >3 and <5)"
- molecule: "Cc1c(-c2ccc([C@@H]3CCCN3)cc2F)nc2sc3cc(C(=O)NCCCN4CCC(F)CC4)ccc3n12 [Compound 464S, dihydrochloride]"
  Myc Efficacy (−LogEC50): "+++ (+++ ≥6)"
- molecule: "Cc1cccc(-c2cn3c(n2)sc2cc(C(=O)NC4CCNCC4)ccc23)c1 [compound 140]"
  Myc Efficacy (−LogEC50): "++ (++ ≥5 and <6)"

The origin of these recorded values is patent US12404283B2.
